Let's go through some recorded IC50 values for Voltage-gated inwardly rectifying potassium channel KCNH2 (Homo sapiens, UniProt Q12809) together.
Record the value in nM, omitting the unit from your answer.

Below are worked cases with known answers.
> print(dat)
                              sample.smiles  units.label  experimental.result
1  NC(=O)c1cccc(O[C@@H]2C[C@H]3CC[C@@H](C2)N3Cc2ccccn2)c1           nM                 1900
2  NC(=O)c1cccc(O[C@@H]2C[C@H]3CC[C@@H](C2)N3CC(=O)Nc2ccccc2)c1           nM                  720

Now take the following compound into account.
// query GET /values?readout=IC50&system=Voltage-gated inwardly rectifying potassium channel KCNH2 (Homo sapiens, UniProt Q12809)&item= NC(=O)c1cccc(O[C@@H]2C[C@H]3CC[C@@H](C2)N3Cc2cccs2)c1
// result 430

* * *

SYSTEM: Kappa-type opioid receptor (Homo sapiens, UniProt P41145)
Sequence (P41145 whole entry): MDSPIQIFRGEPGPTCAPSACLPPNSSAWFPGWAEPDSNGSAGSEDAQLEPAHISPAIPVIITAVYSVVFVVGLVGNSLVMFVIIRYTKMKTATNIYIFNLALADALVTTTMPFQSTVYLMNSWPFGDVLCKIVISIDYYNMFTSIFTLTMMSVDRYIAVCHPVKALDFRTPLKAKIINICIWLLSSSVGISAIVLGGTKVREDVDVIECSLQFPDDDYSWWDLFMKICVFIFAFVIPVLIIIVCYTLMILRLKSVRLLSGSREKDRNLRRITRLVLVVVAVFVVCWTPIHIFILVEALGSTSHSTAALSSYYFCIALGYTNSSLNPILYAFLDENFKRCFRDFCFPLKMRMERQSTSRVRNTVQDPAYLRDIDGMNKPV
PROCEDURE SUMMARY: Antagonist activity at human kappa opioid receptor assessed as inhibition of dynorphin A-induced [35S]GTPgammaS binding
pIC50: −log10 of the molar value.
Classify by measured pIC50: Y if it is equal to or exceeds 6, N if it is smaller.

> print(dat)
                                   molecule  label
1  Cc1ccc(CN2[C@@H]3CC[C@H]2C[C@H](Oc2cccc(C(N)=O)c2)C3)o1      Y
2  Cc1ccc(C(C)N2[C@@H]3CC[C@H]2C[C@H](Oc2cccc(C(N)=O)c2)C3)s1 (stereo partly specified)      Y
3  CS(=O)(=O)Cc1ccc(CN2[C@@H]3CC[C@H]2C[C@H](Oc2cccc(C(N)=O)c2)C3)cc1      Y
4  Cc1ccc([C@@H](C)N2[C@@H]3CC[C@H]2C[C@H](Oc2cccc(C(N)=O)c2)C3)s1      Y
5  NC(=O)c1cccc(O[C@@H]2C[C@H]3CC[C@@H](C2)N3Cc2ccccn2)c1      N

// query Dear colleague, could you confirm whether CN1[C@@H]2CC[C@H]1C[C@H](Oc1cccc(C(N)=O)c1)C2 has pIC50 at or above 6?
// result N

// query Does O=C(Nc1cccc(NC(=O)c2cccc(N3CCOCC3)c2)c1)c1cccc(OC2CCN(CC3CC3)CC2)c1 have a reported pIC50 of at least 6?
// result Y

* * *

# IC50 values compiled below
SYSTEM: Mu-type opioid receptor (Homo sapiens, UniProt P35372)
Sequence (P35372 whole entry): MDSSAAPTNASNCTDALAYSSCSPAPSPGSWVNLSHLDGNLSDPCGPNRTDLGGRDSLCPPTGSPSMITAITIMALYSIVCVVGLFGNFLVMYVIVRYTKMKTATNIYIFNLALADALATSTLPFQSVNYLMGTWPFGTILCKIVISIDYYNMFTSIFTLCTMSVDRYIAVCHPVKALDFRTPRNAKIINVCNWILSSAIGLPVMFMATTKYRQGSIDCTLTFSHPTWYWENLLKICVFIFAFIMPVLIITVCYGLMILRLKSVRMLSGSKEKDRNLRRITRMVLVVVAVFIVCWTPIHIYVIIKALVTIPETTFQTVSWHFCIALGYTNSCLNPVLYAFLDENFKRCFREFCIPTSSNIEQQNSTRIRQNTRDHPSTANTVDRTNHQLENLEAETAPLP
PROCEDURE SUMMARY: Antagonist activity at human mu opioid receptor assessed as inhibition of DAMGO-stimulated [35S]GTPgammaS binding
Write the value in µM as a bare number.

Some compounds with known IC50 results, for comparison:
> print(dat)
                                   compound  experimental.result
1  NC(=O)c1cccc(O[C@@H]2C[C@H]3CC[C@@H](C2)N3C2CCCc3ccccc32)c1 (some centres undefined)                 22.7
2  NC(=O)c1cccc(O[C@@H]2C[C@H]3CC[C@@H](C2)N3CC(=O)N2CCCC2)c1                 21.1

// query Item CC(c1ccccc1)N1[C@@H]2CC[C@H]1C[C@H](Oc1cccc(C(N)=O)c1)C2 (some centres undefined) has what recorded IC50?
// result 19.8

* * *

PROCEDURE SUMMARY: Intrinsic clearance in human liver microsomes
Assay type: ADME, Microsome
MEASURED METRIC: microsomal CLint

> print(dat)
                              sample.smiles   measured.metric  experimental.result
1  Cc1ccc([C@@H](C)N2[C@@H]3CC[C@H]2C[C@H](Oc2cccc(C(N)=O)c2)C3)cn1  microsomal CLint        < 4 µL/min/mg
2  NC(=O)c1cccc(O[C@@H]2C[C@H]3CC[C@@H](C2)N3CC2CCCCC2)c1  microsomal CLint        < 4 µL/min/mg

Below: the item to evaluate.
// query Need microsomal CLint, item Cc1ccc(CN2[C@@H]3CC[C@H]2C[C@H](Oc2cccc(C(N)=O)c2)C3)s1
// result 31 µL/min/mg

* * *

PROCEDURE SUMMARY: Oral bioavailability in Sprague-Dawley rat at 6 umol/kg, po
Assay type: ADME, organism-based
CONDITION DETAILS: in vivo
MEASURED METRIC: bioavailability
Put your answer as a value accompanied by its unit after it.

> print(dat)
                              sample.smiles  experimental.result
1  NC(=O)c1cccc(O[C@@H]2C[C@H]3CC[C@@H](C2)N3CC2CCCCC2)c1                 1.8%

Continue with the molecule presented below.
// query I am curious: what bioavailability value has been reported for Cc1ccc(CN2[C@@H]3CC[C@H]2C[C@H](Oc2cccc(C(N)=O)c2)C3)s1 ?
// result 1.7%

* * *

SYSTEM: Delta-type opioid receptor (Homo sapiens, UniProt P41143)
Sequence (P41143 whole entry): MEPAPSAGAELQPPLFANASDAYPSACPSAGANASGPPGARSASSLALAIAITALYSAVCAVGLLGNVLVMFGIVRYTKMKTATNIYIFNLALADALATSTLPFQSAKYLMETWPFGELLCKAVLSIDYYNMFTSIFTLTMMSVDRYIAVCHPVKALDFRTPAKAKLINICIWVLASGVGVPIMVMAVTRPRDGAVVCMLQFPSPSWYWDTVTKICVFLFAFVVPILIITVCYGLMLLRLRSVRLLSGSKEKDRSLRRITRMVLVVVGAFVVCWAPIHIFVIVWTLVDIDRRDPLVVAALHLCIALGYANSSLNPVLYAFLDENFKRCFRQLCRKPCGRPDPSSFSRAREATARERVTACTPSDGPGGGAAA
PROCEDURE SUMMARY: Antagonist activity at human delta opioid receptor assessed as inhibition of SNC80-stimulated [35S]GTPgammaS binding
Quick reference: pIC50 of the listed items.
Just the number, please; pIC50 means minus log10 of the concentration in mol/L.

> print(dat)
                              sample.smiles  experimental.result
1  NC(=O)c1cccc(O[C@@H]2C[C@H]3CC[C@@H](C2)N3CC(=O)Nc2ccccc2)c1                 5.57
2  Cc1ccc(CN2[C@@H]3CC[C@H]2C[C@H](Oc2cccc(C(N)=O)c2)C3)cc1                 4.96
3  NC(=O)c1cccc(O[C@@H]2C[C@H]3CC[C@@H](C2)N3CCCc2ccccc2)c1                 5.40

Now consider the entry below.
// query Consider the compound shown here: NC(=O)c1cccc(O[C@@H]2C[C@H]3CC[C@@H](C2)N3Cc2ccc3c(c2)OCO3)c1 What is its recorded pIC50?
// result 5.31

* * *

PROCEDURE SUMMARY: Volume of distribution at steady state in Sprague-Dawley rat at 2 umol/kg, iv
Format: ADME, organism-based
CONDITION DETAILS: in vivo, read-out: Vdss
MEASURED METRIC: Vd (L/kg)
Give the number; L/kg is assumed, so skip it.

> print(dat)
                              sample.smiles  units.label  experimental.result
1  Cc1ccc(CN2[C@@H]3CC[C@H]2C[C@H](Oc2cccc(C(N)=O)c2)C3)s1         L/kg                  5.1

// query Can you look up the measured Vd of NC(=O)c1cccc(O[C@@H]2C[C@H]3CC[C@@H](C2)N3CC2CCCCC2)c1 for me?
// result 9.5

* * *

PROCEDURE SUMMARY: Apparent permeability from apical to basolateral side of MDCK cells expressing MDR1
Format: ADME, cell-based, Canis lupus familiaris
CONDITION DETAILS: dog
MEASURED METRIC: Papp A→B (×10⁻⁶ cm/s)
Just the number in ×10⁻⁶ cm/s, nothing appended.

// query Please give the measured Papp A→B for this compound: Cc1ccc([C@@H](C)N2[C@@H]3CC[C@H]2C[C@H](Oc2cccc(C(N)=O)c2)C3)cn1
// result 9.1

// query Look up Papp A→B for this compound: Cc1ccc(CN2[C@@H]3CC[C@H]2C[C@H](Oc2cccc(C(N)=O)c2)C3)s1
// result 13

// query If you can, please state the reported Papp A→B value of NC(=O)c1cccc(O[C@@H]2C[C@H]3CC[C@@H](C2)N3CC2CCCCC2)c1 .
// result 8.3

* * *

SYSTEM: Mu-type opioid receptor (Homo sapiens, UniProt P35372)
PROCEDURE SUMMARY: Antagonist activity at human mu opioid receptor assessed as inhibition of DAMGO-stimulated [35S]GTPgammaS binding
pIC50: −log10 of the molar value.
Returns rule met if the recorded pIC50 is greater than or equal to 5, and rule not met otherwise.

Solved entries:
> print(dat)
                                   compound     label
1  COc1cccc([C@@H](C)N2[C@@H]3CC[C@H]2C[C@H](Oc2cccc(C(N)=O)c2)C3)c1  rule met
2  NC(=O)c1cccc(O[C@@H]2C[C@H]3CC[C@@H](C2)N3CC(=O)Nc2ccccc2)c1  rule met

// query Record NC(=O)c1cccc(O[C@@H]2C[C@H]3CC[C@@H](C2)N3Cc2cccnc2)c1 ; criterion: pIC50 no lower than 5. Met?
// result rule met

// query Record Cc1ccccc1C(C)N1[C@@H]2CC[C@H]1C[C@H](Oc1cccc(C(N)=O)c1)C2 (stereo partly drawn) ; criterion: pIC50 no lower than 5. Met?
// result rule not met

// query Is pIC50 for NC(=O)c1cccc(O[C@@H]2C[C@H]3CC[C@@H](C2)N3C2(c3ccccc3)CC2)c1 at or above 5?
// result rule not met

// query Please tell me: is the compound NC(=O)c1cccc(O[C@@H]2C[C@H]3CC[C@@H](C2)N3CCCc2ccccc2)c1 at or over 5 in terms of pIC50?
// result rule met

// query Item Cc1ccc(CN2[C@@H]3CC[C@H]2C[C@H](Oc2cccc(C(N)=O)c2)C3)cc1 with pIC50 of 5 or above?
// result rule met

// query State whether the measured pIC50 reaches 5, counting equality as reaching it, for NC(=O)c1cccc(O[C@@H]2C[C@H]3CC[C@@H](C2)N3CC2CC2)c1
// result rule not met
